Each record here notes measured growth AUC.
- Test system: Escherichia coli IAI1
- Experiment description: growth AUC relative to DMSO control (median of replicates) (fraction); higher = more growth (less inhibition), active = hit call of the paper
- Protocol conditions: 20 µM; 24 h
// return just the number, without any unit appended

Compound	growth AUC
CC(C)(C)[C@@H](O)[C@@H](Cc1ccc(Cl)cc1)n1cncn1 (mixture of isomers)	0.986
NS(=O)(=O)[O-].[NH4+]	1.02
CCc1cccc(C)c1N(COC(C)C)C(=O)CCl	1.01
CC(C)NS(=O)(=O)NC(=O)c1cc(-n2c(=O)cc(C(F)(F)F)[nH]c2=O)c(F)cc1Cl	1.03
CCCCOC(=O)C(C)Oc1ccc(Oc2ccc(C(F)(F)F)cn2)cc1 (centres undefined)	1.01
COc1nc(NC(=O)NS(=O)(=O)c2ccccc2C(F)(F)F)nc(C(F)(F)F)n1	1
NC(=S)Nc1cccc2ccccc12	0.959
CCCCCCCCOC(=O)COc1cc(Cl)c(Cl)cc1Cl	1.01

Query: For the compound S=C([S-])NCCNC(=S)[S-].S=C([S-])NCCNC(=S)[S-].[Mn+2].[Zn+2] , give its reported growth AUC.
Reply: 1.03

Query: For the compound Cc1c(Br)c2ccc(F)cc2n1S(=O)(=O)c1ncn(S(=O)(=O)N(C)C)n1 , give its reported growth AUC.
Reply: 1.11

Query: For the compound Oc1ccccc1 , give its reported growth AUC.
Reply: 0.983

Query: For the compound c1ccc2cc3c(ccc4ccccc43)cc2c1 , give its reported growth AUC.
Reply: 0.994

Query: For the compound c1ccc2[nH]c(-c3cscn3)nc2c1 , give its reported growth AUC.
Reply: 0.989

Query: For the compound Oc1cccc2ccccc12 , give its reported growth AUC.
Reply: 0.982

Query: For the compound CCC(C)Nc1nc(N)nc(Cl)n1 (centres undefined) , give its reported growth AUC.
Reply: 1.01

Query: For the compound CC(C)c1nn(C(=O)NC(C)(C)C)c(=O)n1N , give its reported growth AUC.
Reply: 1.02

Query: For the compound CON=C(Cc1cccnc1)c1ccc(Cl)cc1Cl , give its reported growth AUC.
Reply: 0.986

Query: For the compound O=c1oc(-c2ccccc2)nc2ccccc12 , give its reported growth AUC.
Reply: 0.946

Query: For the compound CN(C)C(=O)Nc1cc(C(C)(C)C)on1 , give its reported growth AUC.
Reply: 1.01

Query: For the compound CCCCCCCCc1c(CC)nc2ncnn2c1N , give its reported growth AUC.
Reply: 0.978

Query: For the compound CCC([O-])=C1C(=O)CC(C(=O)[O-])CC1=O.[Ca+2] (centres undefined) , give its reported growth AUC.
Reply: 0.972

Query: For the compound [O-][n+]1nc(-n2ccnc2)nc2ccc(Cl)cc21 , give its reported growth AUC.
Reply: 0.956

Query: For the compound Cn1cc(C(=O)Nc2ccccc2-c2cc(F)c(F)c(F)c2)c(C(F)F)n1 , give its reported growth AUC.
Reply: 0.987

Query: For the compound O=C(O)c1cccc2nnsc12 , give its reported growth AUC.
Reply: 0.991

Query: For the compound N#Cc1cc(Cl)c(O)c(Cl)c1 , give its reported growth AUC.
Reply: 0.9

Query: For the compound O=S(=O)(Oc1ccc(Cl)cc1Cl)c1ccccc1 , give its reported growth AUC.
Reply: 0.986

Query: For the compound CCOCCc1ccc(OCCNc2ncnc(CC)c2Cl)c(C)c1C , give its reported growth AUC.
Reply: 0.961

Hey, just so you know, these numbers are from the supplement of paper PMC12669032.
